# Test system: Passive Cutaneous Anaphylaxis
# ASSAY_PROTOCOL: Passive Cutaneous Anaphylaxis test (PCA) in rats
# Format: in vivo
# CONDITION_NOTES: Rattus norvegicus, p.o., 0.015 mg ovalbumin i.v. challenge 20-30 minutes after oral administration, read-out: ED50 (dose reducing the size of the blued area by 50%)
# Procedure: The compounds of the present invention, that is, those embraced by formula I and their non-toxic, pharmacologically acceptable salts, have useful pharmacodynamic properties. The anti-allergic properties were ascertained in rats by the Passive Cutaneous Anaphylaxis test (PCA) essentially as described by Goose and Blair (Immunology 16: 749-760,1969). Rat serum was diluted so that the skin reactions with diameters between 10 and 15 mm in unsensitized rats were produced. […]
ENDPOINT: ED50 (mg/kg)
Your answer is read as mg/kg, so omit the unit and give the number.

Below: 3 compounds and their reported ED50.
Cc1sc(NC(=O)C(=O)O)nc1-c1ccccc1 = 2.04
CCOC(=O)C(=O)Nc1nc(-c2ccncc2)cs1 = 1.2
O=C(O)C(=O)Nc1nc(-c2ccc3c(c2)OCCO3)cs1 = 0.7

Problem: Field: ED50 (Passive Cutaneous Anaphylaxis). Entry: "CN(C)c1cccc(-c2csc(NC(=O)C(=O)O)n2)c1"
Result: 1.06

Problem: Form field: ED50 recorded for "COc1cccc(-c2csc(NC(=O)C(=O)O)n2)c1" with Passive Cutaneous Anaphylaxis (enter value)
Result: 2

Problem: Recorded ED50 for "CN(C)c1ccc(-c2csc(NC(=O)C(=O)O)n2)cc1" with Passive Cutaneous Anaphylaxis, please?
Result: 0.34

Problem: Item "CCOC(=O)C(=O)Nc1nc(-c2ccc(OCC)cc2)cs1" with Passive Cutaneous Anaphylaxis - ED50?
Result: 2.07

Problem: Tell me reported ED50 for "COC(=O)C(=O)Nc1nc(-c2ccc(OC)c(OC)c2)cs1" , tested with Passive Cutaneous Anaphylaxis.
Result: 1.2

Problem: # value lookup — system Passive Cutaneous Anaphylaxis, readout ED50, item "CCOC(=O)C(=O)Nc1nc(-c2ccc(O)c(C)c2)cs1"
Result: 2.1
